Consider the following compounds and their measured H1.0 immunofluorescence intensity readings.
- System: TDF
- assay details: H1.0 immunofluorescence intensity relative to DMSO (% of DMSO); higher = stronger H1.0 induction, active = 120 or more
- condition context: concentration: 10 µM; 24 h
Answer with the value's number alone.

# annotated cases, reported H1.0 immunofluorescence intensity shown
# compound, H1.0 immunofluorescence intensity
records = [
    ("O=c1c(-c2ccc(O)cc2)coc2cc(OC3OC(CO)C(O)C(O)C3O)cc(O)c12 (configuration not stated)", 93),
    ("Cl.Cl.O=C(O)COCCN1CCN(C(c2ccccc2)c2ccc(Cl)cc2)CC1 (configuration not stated) [Cetirizine 2HCl]", 94.3),
    ("CCCCCCCCC1OC1CCCCCCCC(=O)O (configuration not stated)", 96.8),
]

Data request, read-out H1.0 immunofluorescence intensity, for O=C1C(SCCO)=C(SCCO)C(=O)c2ccccc21 [2,3-bis[(2-hydroxyethyl)sulfanyl]naphthoquinone] 103

Subsequent entry: C#C[C@@]1(OC(C)=O)CC[C@H]2[C@@H]3CCC4=CC(=O)CC[C@@H]4[C@H]3CC[C@@]21C [(17beta)-17-ethynyl-3-oxoestr-4-en-17-yl acetate] 95.5

Subsequent entry: `CC#N.Nc1nc(Nc2ccc(S(N)(=O)=O)cc2)nn1C(=O)c1c(F)cccc1F` 98.1

Subsequent entry: Nc1ncnc2c1nc(Sc1ccc(Cl)cc1)n2C1OC2COP(=O)([O-])OC2C1O.[Na+] (configuration not stated) [8-(4-Chlorophenylthio)-cAMP sodium] 93.1

###

- System: TDF
- assay details: cell number relative to DMSO (% of DMSO); higher = more cells (less growth inhibition / toxicity)
- condition context: concentration: 10 µM; 24 h
Consider the following compounds and their measured cell number readings.
Answer with the value's number alone.

Data request, read-out cell number, for `COc1ccc2ccc(=O)oc2c1CC=C(C)C` 92.5

###

- Test system: HCC1569
- assay details: cell number relative to DMSO (% of DMSO); higher = more cells (less growth inhibition / toxicity)
- condition context: concentration: 10 µM; 24 h
quantity measured: cell number
Answer with the value's number alone.

# annotated cases, reported cell number shown
# compound, cell number
data = [
    ("CCCCCCCCCCCCCCCC(=O)OC(CC(=O)O)C[N+](C)(C)C.[Cl-] (racemic) [Palmitoyl-DL-Carnitine chloride]", 94.9),
    ("Cc1nc2sccn2c(=O)c1CCN1CCC(=C(c2ccccc2)c2ccc(F)cc2)CC1 [Diacylglycerol kinase inhibitor I]", 87.2),
    ("Cl.NCCNC(=O)c1ncsc1-c1cccc(F)c1 [Ro 41-1049 hydrochloride]", 97.5),
    ("CCN(CC)C(=O)C(C#N)=Cc1cc(O)c(O)c([N+](=O)[O-])c1 [Entacapone]", 98.2),
    ("CC(N)(Cc1ccc(O)cc1)C(=O)O (racemic) [DL-alpha-Methyl-p-tyrosine]", 103),
    ("CN1C(=O)CCC1c1cccnc1 (single isomer, unassigned; (-)) [(-)-Cotinine]", 102),
]

Data request, read-out cell number, for CCn1ccnc1CC1COc2ccccc2O1.Cl (stereo not drawn) [Imiloxan hydrochloride] 103

Subsequent entry: COc1ccc(-c2cc3c(C)nc(N)nc3n(C3CCC(OCCO)CC3)c2=O)cn1 (stereo not drawn) 35

###

- System: TDF
- assay details: cell number relative to DMSO (% of DMSO); higher = more cells (less growth inhibition / toxicity)
- condition context: concentration: 10 µM; 24 h
# if value of cell number reaches 100, tag Met; if it stays below, tag Not met

// below: answered compounds
# compound, label class
data = [
    ("CC1(C)CCCC(C)(C2CCC3(C)C2C(O)CC2C4(C)CCC(O)C(C)(C)C4C(O)CC23C)O1 (stereo not given)", "Not met"),
    ("CCCNC(=O)NS(=O)(=O)c1ccc(Cl)cc1 [Chlorpropamide]", "Not met"),
    ("CC1(C)CCCC2(C)C1CCC1(C)OC(=O)CC12 [(3aR)-(+)-Sclaerolide]", "Met"),
]

Next up:
Given the entry `Nc1ncnc2c1cnn2-c1ccccc1` , answer whether its cell number meets or surpasses 100. Met

###

- Test system: TDF
- assay details: H1.0 immunofluorescence intensity relative to DMSO (% of DMSO); higher = stronger H1.0 induction, active = 120 or more
- condition context: concentration: 10 µM; 24 h
The categories you may choose from are 1 (yes) (active), 0 (no) (inactive)

# compound, target of assay, label class
data = [
    ("Cn1cc[nH]c1=S [Methimazole]", "TDF", "0 (no)"),
    ("COC(=O)C1=C(C)NC(C)=C(C(=O)OC)C1c1ccccc1[N+](=O)[O-] [Nifedipine]", "TDF", "0 (no)"),
    ("CC(=O)N1CCN(C(=O)/C=C/c2ccc(Sc3ccccc3C(C)C)c([N+](=O)[O-])c2)CC1", "TDF", "0 (no)"),
]

Returns: the outcome recorded for CCCCC=CCCCCCCCCC(=O)O [10(E)-Pentadecenoic acid] in this assay. 0 (no)

Subsequent entry: `CC1(C)CCC(C)(C)c2cc(C(=O)Nc3ccc(C(=O)O)cc3)ccc21` 0 (no)

Subsequent entry: CC[N+](C)(C)Cc1ccccc1Br.Cc1ccc(S(=O)(=O)[O-])cc1 [Bretylium tosylate] 0 (no)

Subsequent entry: O=C(O)C=Cc1ccc(O)c(O)c1 [Caffeic Acid] 0 (no)

Subsequent entry: `O=C(O)Cc1nn(Cc2nc3cc(C(F)(F)F)ccc3s2)c(=O)c2ccccc12` 0 (no)

Subsequent entry: CN(CCOc1ccc(NS(C)(=O)=O)cc1)CCc1ccc(NS(C)(=O)=O)cc1 [Dofetilide] 0 (no)

Subsequent entry: COc1nccc(-c2c(-c3ccc(F)cc3)ncn2C2CCC(O)CC2)n1 (stereo not given) 0 (no)

###

Consider the following compounds and their measured H1.0 immunofluorescence intensity readings.
- Tested on: TDF
- assay details: H1.0 immunofluorescence intensity relative to DMSO (% of DMSO); higher = stronger H1.0 induction, active = 120 or more
- condition context: concentration: 10 µM; 24 h
Answer with the value's number alone.

# annotated cases, reported H1.0 immunofluorescence intensity shown
# compound, target of assay, H1.0 immunofluorescence intensity
rows = [
    ("COc1ccc(C=Cc2cc(OC)cc(=O)o2)cc1", "TDF", 104),
    ("O=C(c1ccc(C(=O)N2CCC(N3CCCC3)CC2)c(Nc2ccccc2)c1)N1CCC(N2CCCC2)CC1", "TDF", 86.5),
    ("O=C(C=CC=Cc1ccc2c(c1)OCO2)N1CCCCC1", "TDF", 96.8),
    ("CC(O)C(CO)NC(=O)C1CSSCC(NC(=O)C(N)Cc2ccccc2)C(=O)NC(Cc2ccccc2)C(=O)NC(Cc2c[nH]c3ccccc23)C(=O)NC(CCCCN)C(=O)NC(C(C)O)C(=O)N1 (stereo not drawn) [Octreotide]", "TDF", 103),
    ("Cc1ccc(C(=O)c2ccc(CC(=O)O)n2C)cc1", "TDF", 104),
]

Data request, read-out H1.0 immunofluorescence intensity, for CC(=O)NC(CSCC=C(C)CCC=C(C)C)C(=O)O (stereo not drawn) 93

Subsequent entry: `O=C1NC(=O)c2cc(Nc3ccc(F)cc3)c(Nc3ccc(F)cc3)cc21` 93.4

Subsequent entry: `CC(C)N(CCC(=O)c1ccc2ccccc2c1)Cc1ccccc1.Cl` 102

###

- Test system: HCC1569
- assay details: cell number relative to DMSO (% of DMSO); higher = more cells (less growth inhibition / toxicity)
- condition context: concentration: 10 µM; 24 h
Consider the following compounds and their measured cell number readings.
Answer with the value's number alone.

# annotated cases, reported cell number shown
# compound, target of assay, cell number
measured = [
    ("OCC1OC(O)C(Cl)C(O)C1O [2-Chloro-2-deoxy-D-glucose]", "HCC1569", 104),
    ("O=C(OC1Cc2c(O)cc(O)cc2OC1c1cc(O)c(O)c(O)c1)c1cc(O)c(O)c(O)c1 (stereo not drawn) [Epigallocatechin gallate]", "HCC1569", 105),
    ("CC(C)(C)c1cnc(CSc2cnc(NC(=O)C3CCNCC3)s2)o1", "HCC1569", 105),
    ("Cl.O=C(OCCN1CCOCC1)C1(c2ccccc2)CCCCC1", "HCC1569", 99.8),
    ("CN1CCC(=C2c3ccccc3CC(=O)c3sccc32)CC1 [Ketotifen]", "HCC1569", 104),
]

Data request, read-out cell number, for CCOC(=O)C1=C(C)NC(C)=C(C(=O)OC)C1c1cccc(Cl)c1Cl (stereo not drawn) [Felodipine] 102

Subsequent entry: NS(=O)(=O)c1cc2c(cc1Cl)NC(C1CC3C=CC1C3)NS2(=O)=O (stereo not drawn) [Cyclothiazide] 100

Subsequent entry: C[N+]1(CCCCC[N+]2(C)CCCC2)CCCC1.O=C([O-])C(O)C(O)C(=O)O.O=C([O-])C(O)C(O)C(=O)O [Pentolinium di[L(+)-tartrate]] 103
